assay: plasma pharmacokinetics in patients; type: in vivo, human; conditions: human, plasma, oral
Value Type: half-life

Query `CO[C@H]1CC[C@H](N2C(=O)CNc3ncc(-c4ccc(C(C)(C)O)nc4)nc32)CC1` yields half-life of 292 to 338 min
